- TARGET UNDER TEST: hQ23 (HEK-293 cell line stably transfected with one of the members of the KCNQ family) (Homo sapiens, UniProt O43525+O43526)
- Construct: expressed in transfected cells; host or cells: HEK-293, stably transfected
- Sequence (O43526 whole entry): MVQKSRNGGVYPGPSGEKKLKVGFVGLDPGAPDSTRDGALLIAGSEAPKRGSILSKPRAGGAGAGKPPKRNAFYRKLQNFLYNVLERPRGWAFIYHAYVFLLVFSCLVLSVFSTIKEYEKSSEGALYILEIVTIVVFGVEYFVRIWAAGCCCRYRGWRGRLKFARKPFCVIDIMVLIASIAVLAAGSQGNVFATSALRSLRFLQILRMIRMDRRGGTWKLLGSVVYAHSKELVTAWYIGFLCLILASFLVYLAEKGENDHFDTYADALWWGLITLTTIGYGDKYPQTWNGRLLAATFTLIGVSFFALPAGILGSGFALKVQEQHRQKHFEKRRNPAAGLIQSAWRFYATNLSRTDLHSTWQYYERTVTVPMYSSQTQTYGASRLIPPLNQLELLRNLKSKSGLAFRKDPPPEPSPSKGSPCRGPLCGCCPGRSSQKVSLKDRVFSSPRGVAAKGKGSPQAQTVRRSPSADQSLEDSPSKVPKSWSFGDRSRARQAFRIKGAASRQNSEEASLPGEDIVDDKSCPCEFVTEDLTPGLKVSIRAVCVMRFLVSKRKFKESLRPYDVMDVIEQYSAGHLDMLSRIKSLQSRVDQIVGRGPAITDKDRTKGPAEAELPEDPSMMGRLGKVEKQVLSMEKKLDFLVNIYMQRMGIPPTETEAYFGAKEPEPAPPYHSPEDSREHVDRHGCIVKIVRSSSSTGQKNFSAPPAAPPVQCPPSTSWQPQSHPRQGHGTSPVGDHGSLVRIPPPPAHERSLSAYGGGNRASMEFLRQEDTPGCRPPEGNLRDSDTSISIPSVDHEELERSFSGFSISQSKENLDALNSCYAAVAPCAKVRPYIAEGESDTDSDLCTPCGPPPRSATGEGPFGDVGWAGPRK
- Sequence (O43525 whole entry): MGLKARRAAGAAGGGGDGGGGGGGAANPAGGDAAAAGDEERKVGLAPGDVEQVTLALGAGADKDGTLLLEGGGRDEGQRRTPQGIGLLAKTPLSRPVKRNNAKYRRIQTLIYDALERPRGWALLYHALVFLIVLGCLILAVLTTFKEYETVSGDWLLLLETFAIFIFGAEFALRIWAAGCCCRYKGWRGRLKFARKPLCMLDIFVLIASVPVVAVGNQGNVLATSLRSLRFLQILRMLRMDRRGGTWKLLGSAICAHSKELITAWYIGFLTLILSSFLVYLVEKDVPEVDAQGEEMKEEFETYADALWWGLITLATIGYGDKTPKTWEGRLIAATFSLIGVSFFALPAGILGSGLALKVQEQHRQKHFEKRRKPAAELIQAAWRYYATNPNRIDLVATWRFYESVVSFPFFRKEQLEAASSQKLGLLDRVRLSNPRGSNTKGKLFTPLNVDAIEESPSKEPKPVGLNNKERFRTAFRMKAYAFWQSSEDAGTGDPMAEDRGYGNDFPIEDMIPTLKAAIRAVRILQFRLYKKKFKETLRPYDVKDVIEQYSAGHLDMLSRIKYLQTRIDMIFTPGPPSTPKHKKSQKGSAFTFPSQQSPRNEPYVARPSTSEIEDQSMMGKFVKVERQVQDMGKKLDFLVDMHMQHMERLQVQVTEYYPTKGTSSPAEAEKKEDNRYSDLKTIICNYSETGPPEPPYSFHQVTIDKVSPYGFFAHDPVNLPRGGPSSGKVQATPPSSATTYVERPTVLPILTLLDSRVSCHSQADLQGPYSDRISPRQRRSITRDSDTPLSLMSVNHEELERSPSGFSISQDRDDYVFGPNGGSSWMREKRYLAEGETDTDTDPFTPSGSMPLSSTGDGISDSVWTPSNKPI
- TEST DESCRIPTION: Thallium flux assay for KCNQ channel blockers (FLIPR, BTC dye)
- Assay type: cell-based
- ASSAY CONDITIONS: hQ23 cells, thallium flux
pEC50 values for the molecules below.
Remember, pEC50 is on a log scale: it is -log10 of the molar concentration.

The examples below pair each entry with its known result.
{"MOLECULE": "CC1CCC(Nc2ncc(C(=O)N(C)C3CCCCC3)c(C3(c4ccc(F)cc4)CCCC3)n2)CC1 (stereo not drawn)", "pEC50": 6.06}
{"MOLECULE": "CC1CCN(c2ncc(C(=O)NCc3ccc(Cl)cc3Cl)c(C3(c4ccccc4)CCCC3)n2)CC1", "pEC50": 8.00}
{"MOLECULE": "CC1CCC(Nc2ncc(C(=O)NCc3cc(F)cc(C(F)(F)F)c3)c(C3(c4ccccc4)CCCC3)n2)CC1 (stereo not drawn)", "pEC50": 8.00}
{"MOLECULE": "CC(NC(=O)c1cnc(NC2CCCC2)nc1C1(c2ccc(Cl)cc2)CCCC1)c1ccc(F)cc1 (stereo not drawn)", "pEC50": 6.23}
{"MOLECULE": "CC1CCN(c2ncc(C(=O)N(C)CCc3ccccc3)c(C3(c4ccccc4)CCCC3)n2)CC1", "pEC50": 6.36}

I'd like to know its pEC50. The molecule in question is CC1CCN(c2ncc(C(=O)N(C)Cc3ccccc3)c(C3(c4ccc(F)cc4)CCCC3)n2)CC1
6.58

Could you tell me which pEC50 is on file for O=C(NCc1ccc(Cl)cc1Cl)c1cnc(N2CCCC2)nc1C1(c2ccccc2)CCCC1 ?
6.72

Given the entry CN(CCc1ccccc1)C(=O)c1cnc(N2CCCC2)nc1C1(c2ccccc2)CCCC1 , report its measured pEC50.
6.35

Consider the molecule CCC(C)Nc1ncc(C(=O)N(CC)Cc2ccccc2)c(C2(c3ccccc3)CCCC2)n1 (stereo not drawn) and give its measured pEC50.
6.07

Which pEC50 reading was recorded for the molecule CC1CCCN(c2ncc(C(=O)NCc3ccc4c(c3)OCO4)c(C3(c4ccc(Cl)cc4)CCCC3)n2)C1 (stereo not drawn) ?
8.00

Entry CC1CCC(Nc2ncc(C(=O)NCc3ccc(C(F)(F)F)cc3)c(C3(c4ccccc4)CCCC3)n2)CC1 (stereo not drawn) : reported pEC50 = ?
6.02

Fill blank: measured pEC50 of the molecule O=C(NCc1cc(F)cc(C(F)(F)F)c1)c1cnc(NC2CC2)nc1C1(c2ccccc2)CCCC1 is ____.
8.00

Tell me the measured pEC50 of O=C(c1cnc(NC2CCCC2)nc1C1(c2ccccc2)CCCC1)N1CCc2ccccc2C1 , please.
6.02

So what does the record say about pEC50 for O=C(NCc1cccc2ccccc12)c1cnc(N2CCCC2)nc1C1(c2ccc(Cl)cc2)CCCC1 ?
6.85

// returns reported pEC50 for input CC1CCC(Nc2ncc(C(=O)NCc3ccc4c(c3)OCO4)c(C3(c4ccccc4)CCCC3)n2)CC1 (stereo not drawn)
6.66

# input molecule: CC1CCN(c2ncc(C(=O)NCc3ccc4c(c3)OCO4)c(C3(c4ccc(Cl)cc4)CCCC3)n2)CC1 ; wanted: its pEC50
8.00

Record request: pEC50 value, item CN(C)CCNc1ncc(C(=O)NCc2cc(F)cc(C(F)(F)F)c2)c(C2(c3ccc(Cl)cc3)CCCC2)n1
6.20
